Where do these numbers come from? They come from PubChem BioAssay.

PROTOCOL DETAILS: 384-well plate pilot, post-Golgi transport modulator project, inhibition of yeast transport mutant growth (AID 636)
RECORDED CONDITIONS: absorbance 615 nm, about 18 h, stronger effect = higher value

COMPOUND | OUTPUT UNIT | inhibition
CCOc1ccccc1-c1nc(-c2ccc(NC(=O)Cc3ccccc3OC)cc2)no1 | % | 0.93
Cc1c(NC(=O)C(C)OC(=O)COc2cccc3c2OC(C)(C)C3)c(=O)n(-c2ccccc2)n1C (stereo not drawn) | % | -4.47
COc1cc2[nH]c(=O)c(C(=O)NCCCN3CCCCC3)c(O)c2cc1OC | % | -6.35
COc1ccccc1N1C(=O)c2ccccc2NC1c1ccncc1 (stereo not drawn) | % | -1.51
C=CCn1c(SCC(=O)Nc2ccccc2OC)nnc1-c1ccco1 | % | -4.67
c1cncc(-c2nnc3n2N=C(c2cccs2)CS3)c1 | % | -4.34
O/N=C/c1ccc(OCC(O)COc2ccc(/C=N/O)cc2)cc1 | % | -1.54
COCCNC(=O)C(c1ccc(O)cc1)N(Cc1ccco1)C(=O)CCC(=O)Nc1nccs1 (stereo not drawn) | % | -0.81
O=C(O)CCc1ccc(-c2cccs2)n1CCC(=O)O | % | -2.24
CCCCCC(=O)N1CC2(CC)CN(C(=O)CCCCC)CC(CC)(C1)C2=O | % | 0.51
CCNC(=O)C1CC(=O)N(Cc2ccc3c(c2)OCO3)C(=Nc2ccc(F)cc2)S1 (stereo not drawn) | % | -6.58
Cc1cc(C)n2cc(CSc3nnnn3-c3ccc(Cl)cc3)nc2n1 | % | -1.73
CC(=O)Oc1ccc(CCC(C)OC(C)=O)cc1 (stereo not drawn) | % | -6.13
Cc1cc(C)n(-c2nc(C)nc3sc4c(c23)CCC(C)C4)n1 (stereo not drawn) | % | -1.04
O=S(=O)(NC1CCCC1)c1ccccc1Cl | % | 2.73
COC(=O)Cc1csc(N)n1 | % | 0.92
COCCn1c(C)cc(C(=O)COC(=O)CCN2C(=O)c3ccccc3C2=O)c1C | % | -5.33
Cc1noc(C)c1S(=O)(=O)N1CCC(C(=O)N2CCN(Cc3ccc4c(c3)OCO4)CC2)CC1 | % | -1.45
O=C(NCCc1c[nH]c2ccccc12)c1ccc(S(=O)(=O)NCc2ccco2)cc1 | % | -1.82
O=C(Nc1ccc(N2CCCCC2)cc1)c1ccc(F)cc1 | % | 1.79
CCOC(=O)N1CCN(C(=O)c2ccc3nc4cc(Cl)ccc4c(=O)n3c2)CC1 | % | -3.07
CCC1c2ccc(C)n2CCN1C(=O)Nc1ccccc1OC (stereo not drawn) | % | -6.13
O=c1oc2ccccc2c(O)c1C=NCc1ccccn1 | % | -8.11

----------
PROTOCOL DETAILS: reversal of MRP1-mediated doxorubicin resistance, pilot screen, H69AR cells, doxorubicin co-treatment (AID 601)
RECORDED CONDITIONS: H69AR cells, CellTiter-Glo, 72 h; compound alone cytotoxicity; at 10 µM
Please respond with condition met when measured viability is strictly beneath 90%, and with condition not met in all other cases.

COMPOUND | ASSIGNED CLASS
CC1=CCC(C(C)(C)NC(=O)c2ccccc2)C/C1=N\O (stereo unspecified) | condition not met
Cc1cc(C)n2cc(CSc3nnnn3-c3ccc(Cl)cc3)nc2n1 | condition not met
O=C(CCN1C(=O)C2C3C=CC(C3)C2C1=O)NC1CCCc2ccccc21 (stereo unspecified) | condition not met
COc1ccc(C(C)=O)c(OC(=O)c2ccc(OC)c(OC)c2)c1 | condition not met
CCC(C)NC(=O)C1(C)CCC(=O)N1CCc1ccc(OC)c(OC)c1 (stereo unspecified) | condition met
